protocol_summary: activity coefficient (dimensionless); of the first substance listed, at infinite dilution; xn = mol fraction of the nth substance listed
condition_details: 348.15 K; 101.33 kPa; Liquid; Chromatography; x1 = 0
Below, each entry is listed alongside its reported activity coefficient.

| molecule | activity coefficient |
| --- | --- |
| CC(C)OC(C)C [diisopropyl ether] + CCCCCCCCCCCC[N+](C)(C)CCOc1ccccc1.O=S(=O)([N-]S(=O)(=O)C(F)(F)F)C(F)(F)F | 2.1 |
| CC(C)O [propan-2-ol] + CCCCCCCCCCCC[N+](C)(C)CCOc1ccccc1.N#C[N-]C#N | 0.512 |
| COC(C)(C)C [2-methoxy-2-methylpropane] + CCCCCCCCCCCC[N+](C)(C)CCOc1ccccc1.N#C[N-]C#N | 2.38 |
| Cc1ccccc1 [toluene] + CCCCCCCCCCCC[N+](C)(C)CCOc1ccccc1.N#C[N-]C#N | 1.15 |

###

protocol_summary: activity coefficient (dimensionless); of the first substance listed, at infinite dilution; xn = mol fraction of the nth substance listed
condition_details: 328.15 K; 101.33 kPa; Liquid; Chromatography; x1 = 0

| compound | activity coefficient |
| --- | --- |
| C1COCCO1 [1,4-dioxane] + CCCCCCCCCCCC[N+](C)(C)CCOc1ccccc1.O=S(=O)([N-]S(=O)(=O)C(F)(F)F)C(F)(F)F | 0.483 |
| CC1CCCCC1 [methylcyclohexane] + CCCCCCCCCCCC[N+](C)(C)CCOc1ccccc1.N#C[N-]C#N | 3.67 |
| CC(C)O [propan-2-ol] + CCCCCCCCCCCC[N+](C)(C)CCOc1ccccc1.O=S(=O)([N-]S(=O)(=O)C(F)(F)F)C(F)(F)F | 1.22 |
| COC(C)(C)C [2-methoxy-2-methylpropane] + CCCCCCCCCCCC[N+](C)(C)CCOc1ccccc1.N#C[N-]C#N | 2.28 |
| CCC(C)(C)C [2,2-dimethylbutane] + CCCCCCCCCCCC[N+](C)(C)CCOc1ccccc1.O=S(=O)([N-]S(=O)(=O)C(F)(F)F)C(F)(F)F | 2.91 |
| Cc1ccccc1C [1,2-dimethylbenzene] + CCCCCCCCCCCC[N+](C)(C)CCOc1ccccc1.O=S(=O)([N-]S(=O)(=O)C(F)(F)F)C(F)(F)F | 0.83 |
| C=CCCCCC [1-heptene] + CCCCCCCCCCCC[N+](C)(C)CCOc1ccccc1.N#C[N-]C#N | 4.19 |
| C1CCCCC1 [cyclohexane] + CCCCCCCCCCCC[N+](C)(C)CCOc1ccccc1.N#C[N-]C#N | 3.15 |
| CCCC=O [butanal] + CCCCCCCCCCCC[N+](C)(C)CCOc1ccccc1.N#C[N-]C#N | 0.766 |
| CCC(C)CC [3-methylpentane] + CCCCCCCCCCCC[N+](C)(C)CCOc1ccccc1.O=S(=O)([N-]S(=O)(=O)C(F)(F)F)C(F)(F)F | 2.81 |
| O [water] + CCCCCCCCCCCC[N+](C)(C)CCOc1ccccc1.O=S(=O)([N-]S(=O)(=O)C(F)(F)F)C(F)(F)F | 3.32 |
| CCOC(C)(C)C [2-ethoxy-2-methylpropane] + CCCCCCCCCCCC[N+](C)(C)CCOc1ccccc1.O=S(=O)([N-]S(=O)(=O)C(F)(F)F)C(F)(F)F | 1.87 |
| CCCCCCCCCC [decane] + CCCCCCCCCCCC[N+](C)(C)CCOc1ccccc1.N#C[N-]C#N | 9.02 |
| C=COC(C)=O [vinyl acetate] + CCCCCCCCCCCC[N+](C)(C)CCOc1ccccc1.O=S(=O)([N-]S(=O)(=O)C(F)(F)F)C(F)(F)F | 0.414 |

###

Below, each entry is listed alongside its reported activity coefficient.
protocol_summary: activity coefficient (dimensionless); of the first substance listed, at infinite dilution; xn = mol fraction of the nth substance listed
condition_details: 328.15 K; 101.33 kPa; Liquid; Chromatography; x1 = 0
recorded_metric: activity coefficient

| compound | observed_measurement |
| --- | --- |
| CCCO [propan-1-ol] + CCCCCCCCCCCC[N+](C)(C)CCOc1ccccc1.N#C[N-]C#N | 0.425 |
| Cc1cccc(C)c1 [1,3-dimethylbenzene] + CCCCCCCCCCCC[N+](C)(C)CCOc1ccccc1.O=S(=O)([N-]S(=O)(=O)C(F)(F)F)C(F)(F)F | 0.902 |
| CCOC(C)=O [ethyl acetate] + CCCCCCCCCCCC[N+](C)(C)CCOc1ccccc1.O=S(=O)([N-]S(=O)(=O)C(F)(F)F)C(F)(F)F | 0.533 |

###

protocol_summary: activity coefficient (dimensionless); of the first substance listed, at infinite dilution; xn = mol fraction of the nth substance listed
condition_details: 348.15 K; 101.33 kPa; Liquid; Chromatography; x1 = 0
Below, each entry is listed alongside its reported activity coefficient.

| compound | activity coefficient |
| --- | --- |
| Cc1ccc(C)cc1 [1,4-dimethylbenzene] + CCCCCCCCCCCC[N+](C)(C)CCOc1ccccc1.O=S(=O)([N-]S(=O)(=O)C(F)(F)F)C(F)(F)F | 1.02 |
| CCC(C)(C)OC [2-methoxy-2-methylbutane] + CCCCCCCCCCCC[N+](C)(C)CCOc1ccccc1.O=S(=O)([N-]S(=O)(=O)C(F)(F)F)C(F)(F)F | 1.43 |
| COC(C)=O [methyl ethanoate] + CCCCCCCCCCCC[N+](C)(C)CCOc1ccccc1.N#C[N-]C#N | 1.09 |
| O [water] + CCCCCCCCCCCC[N+](C)(C)CCOc1ccccc1.N#C[N-]C#N | 0.489 |
| C#CCCC [1-pentyne] + CCCCCCCCCCCC[N+](C)(C)CCOc1ccccc1.O=S(=O)([N-]S(=O)(=O)C(F)(F)F)C(F)(F)F | 1.25 |
| CC#N [acetonitrile] + CCCCCCCCCCCC[N+](C)(C)CCOc1ccccc1.N#C[N-]C#N | 0.775 |
| c1ccncc1 [pyridine] + CCCCCCCCCCCC[N+](C)(C)CCOc1ccccc1.N#C[N-]C#N | 0.622 |
| CCCC(=O)OC [methyl butanoate] + CCCCCCCCCCCC[N+](C)(C)CCOc1ccccc1.N#C[N-]C#N | 1.38 |
| C1CCCCCCC1 [cyclooctane] + CCCCCCCCCCCC[N+](C)(C)CCOc1ccccc1.N#C[N-]C#N | 3.69 |
| CCCCCCC [heptane] + CCCCCCCCCCCC[N+](C)(C)CCOc1ccccc1.O=S(=O)([N-]S(=O)(=O)C(F)(F)F)C(F)(F)F | 3.68 |
| c1ccsc1 [thiophene] + CCCCCCCCCCCC[N+](C)(C)CCOc1ccccc1.O=S(=O)([N-]S(=O)(=O)C(F)(F)F)C(F)(F)F | 0.62 |
| CCCCCCC [heptane] + CCCCCCCCCCCC[N+](C)(C)CCOc1ccccc1.N#C[N-]C#N | 6.16 |
| Cc1cccc(C)c1 [1,3-dimethylbenzene] + CCCCCCCCCCCC[N+](C)(C)CCOc1ccccc1.O=S(=O)([N-]S(=O)(=O)C(F)(F)F)C(F)(F)F | 1.01 |
| COC(C)=O [methyl ethanoate] + CCCCCCCCCCCC[N+](C)(C)CCOc1ccccc1.O=S(=O)([N-]S(=O)(=O)C(F)(F)F)C(F)(F)F | 0.563 |
| CC(C)c1ccccc1 [isopropylbenzene] + CCCCCCCCCCCC[N+](C)(C)CCOc1ccccc1.N#C[N-]C#N | 1.94 |
| CCCCCCCCCC [decane] + CCCCCCCCCCCC[N+](C)(C)CCOc1ccccc1.O=S(=O)([N-]S(=O)(=O)C(F)(F)F)C(F)(F)F | 5.92 |
| CC(C)(C)O [2-methylpropan-2-ol] + CCCCCCCCCCCC[N+](C)(C)CCOc1ccccc1.N#C[N-]C#N | 0.569 |
| CCC(=O)CC [pentan-3-one] + CCCCCCCCCCCC[N+](C)(C)CCOc1ccccc1.N#C[N-]C#N | 0.981 |
| CC(C)CO [2-methyl-1-propanol] + CCCCCCCCCCCC[N+](C)(C)CCOc1ccccc1.O=S(=O)([N-]S(=O)(=O)C(F)(F)F)C(F)(F)F | 1.21 |
| CCC(C)CC [3-methylpentane] + CCCCCCCCCCCC[N+](C)(C)CCOc1ccccc1.O=S(=O)([N-]S(=O)(=O)C(F)(F)F)C(F)(F)F | 2.95 |
| Cc1cccc(C)c1 [1,3-dimethylbenzene] + CCCCCCCCCCCC[N+](C)(C)CCOc1ccccc1.N#C[N-]C#N | 1.5 |
| O [water] + CCCCCCCCCCCC[N+](C)(C)CCOc1ccccc1.O=S(=O)([N-]S(=O)(=O)C(F)(F)F)C(F)(F)F | 2.8 |

###

protocol_summary: activity coefficient (dimensionless); of the first substance listed, at infinite dilution; xn = mol fraction of the nth substance listed
condition_details: 358.15 K; 101.33 kPa; Liquid; Chromatography; x1 = 0
Below, each entry is listed alongside its reported activity coefficient.
recorded_metric: activity coefficient

| compound | observed_measurement |
| --- | --- |
| CO [methanol] + CCCCCCCCCCCC[N+](C)(C)CCOc1ccccc1.O=S(=O)([N-]S(=O)(=O)C(F)(F)F)C(F)(F)F | 0.982 |
| CCCC(C)=O [pentan-2-one] + CCCCCCCCCCCC[N+](C)(C)CCOc1ccccc1.N#C[N-]C#N | 1 |
| CC#N [acetonitrile] + CCCCCCCCCCCC[N+](C)(C)CCOc1ccccc1.N#C[N-]C#N | 0.785 |
| CCC(C)CC [3-methylpentane] + CCCCCCCCCCCC[N+](C)(C)CCOc1ccccc1.N#C[N-]C#N | 5.46 |
| C=Cc1ccccc1 [styrene] + CCCCCCCCCCCC[N+](C)(C)CCOc1ccccc1.N#C[N-]C#N | 1.02 |
| CC(C)O [propan-2-ol] + CCCCCCCCCCCC[N+](C)(C)CCOc1ccccc1.N#C[N-]C#N | 0.52 |
| c1ccccc1 [benzene] + CCCCCCCCCCCC[N+](C)(C)CCOc1ccccc1.O=S(=O)([N-]S(=O)(=O)C(F)(F)F)C(F)(F)F | 0.687 |
| c1ccsc1 [thiophene] + CCCCCCCCCCCC[N+](C)(C)CCOc1ccccc1.N#C[N-]C#N | 0.724 |
| C1CCCCCCC1 [cyclooctane] + CCCCCCCCCCCC[N+](C)(C)CCOc1ccccc1.N#C[N-]C#N | 3.72 |

FYI, the data here is from the NIST ThermoML archive (doi:10.1016/j.fluid.2018.09.024).
